Tested on: FoxA2
PROCEDURE SUMMARY: FoxA2 mRNA expression by qPCR in primary ventral midbrain cultures
CONDITIONS: Mus musculus, 24 h, read-out: Fold Increase in FoxA2 Expression
Where a name gives a salt, the structure may show the parent alone.
fold induction at 10 µM strictly under 2 means y; at 2 or over means n.

// known answers, use as guide
{"MOLECULE": "NNCCc1ccccc1 [Phenelzine sulfate]", "TARGET": "FoxA2", "DISCRETE LABEL": "n"}
{"MOLECULE": "COc1ccccc1OCC(O)COC(N)=O (stereo not drawn) [Methocarbamol]", "TARGET": "FoxA2", "DISCRETE LABEL": "n"}
{"MOLECULE": "O=C1CC[C@@]2(O)[C@H]3Cc4ccc(O)c5c4[C@@]2(CCN3CC2CC2)[C@H]1O5 [Naltrexone hydrochloride]", "TARGET": "FoxA2", "DISCRETE LABEL": "n"}

Query :: Lab note: fold induction at 10 µM threshold 2. Does this molecule come in strictly under it? c1ccc2c(c1)CCCC2C1=NCCN1 (stereo not drawn) [Tetrahydrozoline hydrochloride]
Result :: n

Query :: Record: CC(=O)S[C@@H]1CC2=CC(=O)CC[C@]2(C)[C@H]2CC[C@@]3(C)[C@@H](CC[C@@]34CCC(=O)O4)[C@H]12 [Spironolactone]
Result :: y

Query :: Record: CC(C)NCC(O)COc1cccc2[nH]ccc12 (stereo not drawn) [Pindolol]
Result :: n

Query :: Record: CCCc1cc(=O)[nH]c(=S)[nH]1 [Propylthiouracil]
Result :: y

Query :: Record: CC(CCc1ccccc1)NC(C)C(O)c1ccc(O)cc1 (stereo not drawn) [Nylidrin hydrochloride]
Result :: y

Query :: Record: CC(=O)O[C@]1(C(C)=O)CC[C@H]2[C@@H]3C=C(C)C4=CC(=O)CC[C@]4(C)[C@H]3CC[C@@]21C [Megestrol acetate]
Result :: y

Query :: Record: C[N+]1(C)[C@@H]2C[C@@H](OC(=O)[C@H](CO)c3ccccc3)C[C@H]1[C@@H]1O[C@@H]12 [Methscopolamine bromide]
Result :: y

Query :: Record: C#CCN(C)Cc1ccccc1 [Pargyline hydrochloride]
Result :: y

Query :: Record: CC1(C)O[C@@H]2C[C@H]3[C@@H]4C[C@H](F)C5=CC(=O)CC[C@]5(C)[C@H]4[C@@H](O)C[C@]3(C)[C@]2(C(=O)CO)O1 [Flurandrenolide]
Result :: y

Query :: Record: CC(N)C12CC3CC(CC(C3)C1)C2 (stereo not drawn) [Rimantadine hydrochloride]
Result :: n

Query :: Record: Cc1ccccc1C(OCCN(C)C)c1ccccc1 (stereo not drawn) [Orphenadrine citrate]
Result :: y

Query :: Record: CCCCNC(=O)NS(=O)(=O)c1ccc(C)cc1 [Tolbutamide]
Result :: n

Query :: Record: O=C(O)c1ccccc1Nc1cccc(C(F)(F)F)c1 [Flufenamic acid]
Result :: n

Query :: Record: CCC1(c2ccccc2)C(=O)NCNC1=O [Primidone]
Result :: y
